Dmax values for the compounds below.
target-entity: BRM (Homo sapiens, UniProt P51531)
Construct: In-Cell Western Screen of BRM Degradation in SW1573 Cells; endogenous in cells; host or cells: SW1573
Sequence (P51531 whole entry): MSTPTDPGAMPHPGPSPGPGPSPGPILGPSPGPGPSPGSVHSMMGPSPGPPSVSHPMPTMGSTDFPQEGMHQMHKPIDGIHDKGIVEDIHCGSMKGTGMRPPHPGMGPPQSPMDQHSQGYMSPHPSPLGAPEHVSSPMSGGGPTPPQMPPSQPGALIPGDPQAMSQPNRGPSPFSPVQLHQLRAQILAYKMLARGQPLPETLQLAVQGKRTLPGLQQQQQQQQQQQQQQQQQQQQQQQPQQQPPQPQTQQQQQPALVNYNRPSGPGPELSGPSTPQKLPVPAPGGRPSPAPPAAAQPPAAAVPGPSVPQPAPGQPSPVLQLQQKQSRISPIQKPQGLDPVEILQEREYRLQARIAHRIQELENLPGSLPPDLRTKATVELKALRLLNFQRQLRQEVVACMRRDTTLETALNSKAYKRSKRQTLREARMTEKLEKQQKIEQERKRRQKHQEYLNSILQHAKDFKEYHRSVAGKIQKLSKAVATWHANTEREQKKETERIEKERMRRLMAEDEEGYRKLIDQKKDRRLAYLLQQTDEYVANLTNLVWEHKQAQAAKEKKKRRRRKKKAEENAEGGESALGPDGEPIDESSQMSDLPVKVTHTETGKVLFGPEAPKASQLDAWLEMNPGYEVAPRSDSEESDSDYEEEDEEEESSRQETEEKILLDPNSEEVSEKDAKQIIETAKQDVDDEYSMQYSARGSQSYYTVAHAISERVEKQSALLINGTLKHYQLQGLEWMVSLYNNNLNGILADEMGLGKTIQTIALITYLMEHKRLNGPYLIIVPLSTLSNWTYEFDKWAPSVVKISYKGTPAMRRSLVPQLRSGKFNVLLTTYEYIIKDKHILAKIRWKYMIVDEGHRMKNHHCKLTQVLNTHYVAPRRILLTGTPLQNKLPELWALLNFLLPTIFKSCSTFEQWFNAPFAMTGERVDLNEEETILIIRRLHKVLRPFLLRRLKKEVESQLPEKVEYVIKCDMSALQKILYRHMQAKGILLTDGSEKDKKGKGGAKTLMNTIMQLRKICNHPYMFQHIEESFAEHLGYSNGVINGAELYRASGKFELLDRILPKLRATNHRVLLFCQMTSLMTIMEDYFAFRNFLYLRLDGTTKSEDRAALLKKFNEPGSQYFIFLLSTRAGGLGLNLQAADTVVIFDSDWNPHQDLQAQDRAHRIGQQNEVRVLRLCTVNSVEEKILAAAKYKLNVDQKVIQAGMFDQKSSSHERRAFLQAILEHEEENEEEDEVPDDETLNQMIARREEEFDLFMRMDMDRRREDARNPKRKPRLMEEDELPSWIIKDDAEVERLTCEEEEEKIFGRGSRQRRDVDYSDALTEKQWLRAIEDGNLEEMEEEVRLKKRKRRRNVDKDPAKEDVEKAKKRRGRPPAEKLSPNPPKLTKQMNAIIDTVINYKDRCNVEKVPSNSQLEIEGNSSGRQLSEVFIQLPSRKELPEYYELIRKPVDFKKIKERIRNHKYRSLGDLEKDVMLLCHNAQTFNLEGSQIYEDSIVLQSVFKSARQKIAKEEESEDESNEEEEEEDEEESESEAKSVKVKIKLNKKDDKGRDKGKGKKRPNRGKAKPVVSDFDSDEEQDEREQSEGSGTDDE
assay-details: In-cell Western screen of BRM degradation in SW1573 cells (Dmax and DC50)
Assay type: cell-based
experimental-parameters: BRM degradation, SW1573 cells; tested at the top concentration of between 0.3 and 10 μM; read-out: Dmax (%) (% degraded)

# compound, Dmax
measured = [
    ("Cc1ncsc1-c1ccc([C@H](C)NC(=O)[C@@H]2C[C@@H](O)CN2C(=O)[C@@H](c2cc(OCCC3CCN(C[C@H]4C[C@H](Oc5cc(N6C7CCC6CN(c6cc(-c8ccccc8O)nnc6N)C7)ccn5)C4)CC3)no2)C(C)C)cn1 [compound 288]", "> 75%"),
    ("Cc1ncsc1-c1ccc([C@@H](NC(=O)[C@@H]2C[C@@H](O)CN2C(=O)[C@H](c2cc(OCCN3CCN(CCOc4cc(N5C6CCC5CN(c5cc(-c7ccccc7O)nnc5N)C6)ccn4)CC3)no2)C(C)C)C(F)F)cc1 [compound 173]", "> 75%"),
    ("Cc1ncsc1-c1ccc([C@H](C)NC(=O)[C@@H]2C[C@@H](O)CN2C(=O)[C@H](c2cc(CCCOCCOCCOCCn3cc(-c4cc(-c5ccccc5O)nnc4N)cn3)no2)C(C)C)cc1 [compound 196]", "> 75%"),
    ("CC(C)C(C(=O)N1C[C@H](O)C[C@H]1C(=O)N[C@@H](C)c1ccc(-c2scnc2CO)cc1)c1cc(OCCN2CCN(CCOc3cc(N4C5CCC4CN(c4cc(-c6ccccc6O)nnc4N)C5)ccn3)CC2)no1 (stereo partly drawn) [compound 168]", "> 75%"),
    ("Cc1ncoc1-c1ccc([C@H](C)NC(=O)[C@@H]2C[C@@H](O)CN2C(=O)[C@@H](c2cc(OCCN3CCC(O[C@H]4C[C@H](Oc5cc(N6C7CCC6CN(c6cc(-c8ccccc8O)nnc6N)C7)ccn5)C4)CC3)no2)C(C)C)cc1 [compound 213]", "> 75%"),
    ("COc1cc(-c2scnc2C)ccc1[C@H](C)NC(=O)[C@@H]1C[C@@H](O)CN1C(=O)[C@@H](c1cc(OCCN2CCC(O[C@H]3C[C@H](Oc4cc(N5C6CCC5CN(c5cc(-c7ccccc7O)nnc5N)C6)ccn4)C3)CC2)no1)C(C)C [compound 202]", "> 75%"),
    ("Cc1ncsc1-c1ccc([C@H](C)NC(=O)[C@@H]2C[C@@H](O)CN2C(=O)[C@H](c2cc(OCCN3CCN(Cc4ccc(C(C)n5cc(-c6cc(-c7ccccc7O)nnc6N)cn5)cc4)CC3)no2)C(C)C)cc1 (stereo partly drawn) [compound 166]", "> 75%"),
    ("Cc1ncsc1-c1ccc([C@H](C)NC(=O)[C@@H]2C[C@@H](O)CN2C(=O)[C@@H](c2cc(OCCN3CCC(O[C@H]4C[C@H](C#CCn5cc(-c6cc(-c7ccccc7O)nnc6N)cn5)C4)CC3)no2)C(C)C)cc1 [compound 238]", "> 75%"),
    ("Cc1ncsc1-c1ccc(CNC(=O)[C@@H]2C[C@@H](O)CN2C(=O)[C@@H](c2cc(OCC#Cc3ccc(O[C@H]4C[C@H](Oc5cc(N6C7CCC6CN(c6cc(-c8ccccc8O)nnc6N)C7)ccn5)C4)cn3)no2)C(C)C)cc1 [compound 221]", "> 75%"),
]

Source of measurements: patent US12539292B2
